- Assayed System: Bcl-2-related protein A1 (Mus musculus)
- Test: Bfl-1 activity inhibition – biochemical, dose response (AID 504689)
Reported pIC50 is given for each of the following molecules.
Value format note: pIC50 is -log10 of concentration (mol/L); just state the number.

Molecule	Assayed System	pIC50
C#CCOCCOCCOCCNc1nc(N2CCN(C(=O)CCCCCCCCCCNC(=O)[C@H]([C@@H](C)CC)n3cc(CCCCCN)nn3)CC2)nc(N2CCN(C(=O)CCCCCCCCCCNC(=O)[C@H]([C@@H](C)CC)n3cc(CCCCN=C(N)N)nn3)CC2)n1 [MLS002153718]	Bcl-2-related protein A1 (Mus musculus)	5.21
C#CCOCCOCCOCCNc1nc(N2CCN(C(=O)CCCCCCCCCCNC(=O)[C@H](CO)n3cc(CCCSC)nn3)CC2)nc(N2CCN(C(=O)CCCCCCCCCCNC(=O)[C@H](CCCCN)n3cc(CCO)nn3)CC2)n1 [SMR001318322]	Bcl-2-related protein A1 (Mus musculus)	4.85
C#CCOCCOCCOCCNc1nc(N2CCN(C(=O)CCCCCCCCCCNC(=O)[C@H](CCCCN)n3cc(CCCC(=O)O)nn3)CC2)nc(N2CCN(C(=O)CCCCCCCCCCNC(=O)[C@H](CCCN=C(N)N)n3cc(C[C@@H](C)CC)nn3)CC2)n1 [EK-IR]	Bcl-2-related protein A1 (Mus musculus)	4.86
C#CCOCCOCCOCCNc1nc(N2CCN(C(=O)CCCCCCCCCCNC(=O)Cn3cc(CCCCCN)nn3)CC2)nc(N2CCN(C(=O)CCCCCCCCCCNC(=O)Cn3cc(CCCCCN)nn3)CC2)n1 [SMR001231146]	Bcl-2-related protein A1 (Mus musculus)	4.88

Could you tell me which pIC50 is on file for COc1ccc2nc(C)cc(N=NCc3ccc(F)cc3)c2c1 ? 4.77

====

- Assayed System: Bcl-2-related protein A1 (Mus musculus, UniProt Q07440)
- Sequence (Q07440 whole entry): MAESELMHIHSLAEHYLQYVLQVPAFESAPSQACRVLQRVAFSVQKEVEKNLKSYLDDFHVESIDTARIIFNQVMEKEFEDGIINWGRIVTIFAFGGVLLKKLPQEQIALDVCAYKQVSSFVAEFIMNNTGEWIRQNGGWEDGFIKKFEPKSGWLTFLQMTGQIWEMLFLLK
pIC50: −log10 of the molar value.
Measurement Type: pIC50

Example entries begin here.
Molecule	Assayed System	pIC50
Oc1c(Cc2cnc[nH]2)[nH]c(=S)n1-c1ccccc1 [MLS001163810]	Bcl-2-related protein A1 (Mus musculus, UniProt Q07440)	< 4.70
C#CCOCCOCCOCCNc1nc(N2CCN(C(=O)CCCCCCCCCCNC(=O)Cn3cc(CCCCCN)nn3)CC2)nc(N2CCN(C(=O)CCCCCCCCCCNC(=O)Cn3cc(C[C@@H](C)O)nn3)CC2)n1 [KG-TG]	Bcl-2-related protein A1 (Mus musculus, UniProt Q07440)	< 4.70
C#CCOCCOCCOCCNc1nc(N2CCN(C(=O)CCCCCCCCCCNC(=O)[C@H]([C@@H](C)CC)n3cc(CCCCCN)nn3)CC2)nc(N2CCN(C(=O)CCCCCCCCCCNC(=O)[C@H](CCCCN)n3cc(CCCC(=O)O)nn3)CC2)n1 [KI-EK]	Bcl-2-related protein A1 (Mus musculus, UniProt Q07440)	< 4.70
CC(=O)N1N=C(C2C(=O)N(C)C(=O)N(C)C2=O)CC1c1ccccc1 (stereo not drawn)	Bcl-2-related protein A1 (Mus musculus, UniProt Q07440)	< 4.70
Cc1cc(C)c2c(c1)=C(NNC(=S)NCC1CCCO1)C(=O)N=2 (stereo not drawn)	Bcl-2-related protein A1 (Mus musculus, UniProt Q07440)	< 4.70

I would be grateful if you could share the reported pIC50 for C#CCOCCOCCOCCNc1nc(N2CCN(C(=O)CCCCCCCCCCNC(=O)Cn3cc(CCCCCN)nn3)CC2)nc(N2CCN(C(=O)CCCCCCCCCCNC(=O)[C@H](CO)n3cc(CCCSC)nn3)CC2)n1 [MLS002153667] . 4.93

Find the recorded pIC50 belonging to C#CCOCCOCCOCCNc1nc(N2CCN(C(=O)CCCCCCCCCCNC(=O)[C@H](CCCCN)n3cc(CCO)nn3)CC2)nc(N2CCN(C(=O)CCCCCCCCCCNC(=O)[C@@H]([C@H](C)O)n3cc(C)nn3)CC2)n1 [MLS002153685] and report it. < 4.70

Request the reported pIC50 associated with COc1ccc(CN=Nc2cc(C)nc3ccc(OC)cc23)c(OC)c1 4.94

Could you tell me which pIC50 is on file for CCN(CC)CCOC(=O)c1ccc(N=CC(C#N)c2nc(-c3ccc4c(c3)OCO4)cs2)cc1 (stereo not drawn) ? 5.76

Fill in: pIC50 of COc1cc2c3c(c1)/C(=N/NC(N)=S)C(=O)N3C(C)(C)C=C2C [MLS000807018] is ___ < 4.70

What value of pIC50 has been reported for the following molecule? C#CCOCCOCCOCCNc1nc(N2CCN(C(=O)[C@H](Cc3cc4ccccc4[nH]3)n3cc([C@@H](N)CC(C)C)nn3)CC2)nc(N2CCN(C(=O)[C@H](Cc3cc4ccccc4[nH]3)n3cc([C@@H](N)CC(C)C)nn3)CC2)n1 [LW-LW] 4.71

Requested read-out: pIC50. Entry: CC1=CC(C)(C)N2C(=O)/C(=N\NC(N)=S)c3cccc1c32 [SMR000218901] < 4.70

Which value of pIC50 has been reported for CCOC(=O)C1C(COC(=O)c2cc(OC)c(OC)c(OC)c2)=NC(=O)NC1C (stereo not drawn) [MLS001161811] in the records? < 4.70
